These measurements were taken from PubChem BioAssay (NCI).

Tested on: SK-MEL-28 melanoma
Test: NCI tumour cell line growth inhibition, 48 h
RESULT_TYPE: TGI

1. COC(=O)C1=C(C(=O)OC)C2(CCCCCC2=O)OC1=O (stereo unspecified)    > 100 µM
2. O=C(O)C1=CN=C(C(=O)O)NN1    > 100 µM
3. CC(C)c1ccc(/C=C2\N=C(c3ccc([N+](=O)[O-])cc3)OC2=O)cc1    > 100 µM
4. CCC(=O)OC1CCC2C3CCC(=O)OC3C(C)(CCC(=O)O)CC12C (stereo unspecified)    > 100 µM
5. COc1cccc(N=Cc2cc(OC)c(OC)c(OC)c2)c1    > 100 µM
6. COc1ccc2nc3cccc([N+](=O)[O-])c3c(NCCNCCO)c2c1    0.352 µM
7. C/C=C1\C(=O)O[C@H]2C/C(C)=C/CC/C(C)=C/CC[C@@]3(C)O[C@@H]3C[C@@H]12    > 100 µM
8. CC1=C(c2cc(C(=O)Nc3cc(C)ccc3C)nc(N)n2)Sc2ccccc2N1    > 100 µM
9. O=C1O/C(=C\c2ccc(O)c(Br)c2)C(c2ccc(O)c(Cl)c2)=C1Br    32 µM
10. CC(=O)N1CCC(Nc2cc(C(=O)NC[C@H](O)CN3CCc4ccccc4C3)ncn2)CC1    > 100 µM
11. CCCCCCCCCCC(O)CCCCCCC(=O)O (stereo unspecified)    > 100 µM

====

The following compounds are shown together with reported TGI values.
Tested on: COLO 205 colon
Experiment: NCI tumour cell line growth inhibition, 48 h
RESULT_TYPE: TGI (µM)

1. CCOP1(=O)C=CC(Cl)=C(C)C1 (centres undefined)    44.4
2. CC(=O)c1cc(I)c(O)c2ncccc12    7.81
3. C/C(=N/OC(=O)c1cccc2c(=O)c3ccccc3[nH]c12)[C@H]1CC[C@H]2[C@@H]3CCC4=C/C(=N/OC(=O)c5cccc6c(=O)c7ccccc7[nH]c56)CC[C@]4(C)[C@H]3CC[C@]12C    30.3
4. O=C(Nc1cccc(Cl)c1)Nc1nccs1    32.1
5. O=C(N/N=C/c1c(Cl)cccc1Cl)c1cccnc1Nc1cccc(C(F)(F)F)c1    37.9

====

Test system: 786-0 renal
Assay: NCI tumour cell line growth inhibition, 48 h; in the data active = GI50 below about 0.43 µM; inactive = the rest
Possible outcomes: YES for active, NO for inactive

1) O=C(Nc1ccc([As]=[As]c2ccc(NC(=O)c3ccccc3)cc2)cc1)c1ccccc1 (stereo not given)    NO
2) COc1ccc2nc3cccc([N+](=O)[O-])c3c(NCCNCCO)c2c1    YES
3) COc1cc2c(cc1OCc1ccccc1)N=CC1C[C@@H](O)CN1C2=O (stereo not given in full)    NO
4) CN(C)CCCNCc1ccc(-c2ccc(F)c(Cl)c2)o1    NO
5) C[C@]12CCC(=O)CC1CC[C@@H]1C2CC[C@@]2(C)C1CC[C@@H]2OC(=O)CC[Se][Se]CCC(=O)O[C@H]1CCC2[C@@H]3CCC4CC(=O)CC[C@]4(C)C3CC[C@@]21C (stereo not given in full)    NO

====

Tested on: EKVX NSCLC
Test: NCI tumour cell line growth inhibition, 48 h
RESULT_TYPE: TGI

1. [N-]=[N+]=NC1C2CC3C4CC5CC3[C@H](C2)C(C5)C41 (stereo not given in full)    > 100 µM
2. CC(=O)N1C(Nc2cnc3ccccc3c2)CCN1c1ccccc1 (stereo not given)    > 10 µM
3. CC1=NN(C(=O)c2ccc(Cl)cc2)C(=O)C1N=Nc1ccc(S(=O)(=O)Nc2ncccn2)cc1 (stereo not given)    > 100 µM
4. CN/N=C(\C)c1c(O)cc(C)oc1=O    > 100 µM
5. Cc1ccc(NC(=O)SCCC(=O)O)cc1    > 100 µM
6. CC1(O)CCC(C(C)(C)O)CC1 (stereo not given)    > 100 µM
7. CCOC(=O)N1Cc2ccoc2C1    > 100 µM
8. c1ccc([Si](OCCN2CC2)(c2ccccc2)c2ccccc2)cc1    25.4 µM
9. COC(=O)/C1=C/c2c([nH]c3ccccc23)/C(C(=O)OC)=C\c2c1[nH]c1ccccc21    > 50 µM
10. COc1ccc2c(c1)NC(=O)CN2c1nc(NC2CC2)nc2ccccc12    77.5 µM

====

The entries below come with measured TGI values attached.
Tested on: HS 578T breast
Assay: NCI tumour cell line growth inhibition, 48 h
RESULT_TYPE: TGI (µM)

1. CCOC(=O)c1cn2c(n1)sc1cc(C)c(C)cc12    79.3
2. COc1ccc2c(c1)NC(=O)CN2c1nc(NC2CC2)nc2ccccc12    25

====

Test system: UACC-257 melanoma
Test: NCI tumour cell line growth inhibition, 48 h; in the data active means GI50 below about 0.43 µM; inactive means the rest
Possible outcomes: yes (1) for active, no (0) for inactive

1) COC(=O)C1=CN(CC2=CC(=O)C(C)=CC2=O)C=C(C(=O)OC)C1c1cc(OC)ccc1OC    no (0)
2) O=CN/N=C/c1ccc(Cl)c([N+](=O)[O-])c1    no (0)
3) CCC(=O)OC1CCC2C3CCC(=O)OC3C(C)(CCC(=O)O)CC12C (centres undefined)    no (0)
4) O=c1ccc2nc(C(F)(F)F)nn(-c3ccccc3)c-2c1    no (0)
5) COc1ccc2nc3cccc([N+](=O)[O-])c3c(NCCNCCO)c2c1    yes (1)
6) CCCCCCCC(=O)SCC/C=C/[C@@H]1CC(=O)NCc2cccc(n2)CN(Cc2ccc3ccccc3c2)CC(=O)N[C@@H](C(C)C)C(=O)O1    no (0)
7) Cn1cc(-c2ccc(-c3cn(C)c4ccc(Cl)cc34)[nH]2)c2cc(Cl)ccc21    no (0)
8) CC1(C)CC[C@]2(C(N)=O)CC[C@]3(C)C(=CC[C@@H]4[C@@]5(C)C/C(=C/c6cccnc6)C(=O)C(C)(C)[C@@H]5CC[C@]43C)[C@@H]2C1    no (0)
9) Cc1cc(Oc2ccccc2)ccc1Nc1ncnc2ccc(-c3cnc(Cl)c(NS(C)(=O)=O)c3)cc12    no (0)

====

Test system: UACC-257 melanoma
Assay: NCI tumour cell line growth inhibition, 48 h
RESULT_TYPE: TGI (µM)

1. O=C(N/N=C(\CN1CCN(c2cc3[nH]cc(C(=O)O)c(=O)c3cc2F)CC1)c1ccc(Cl)cc1)c1ccncc1    49
2. C=C1C(=O)O[C@H]2[C@H]1CC/C(COC(=O)CCSSCCC(=O)OC/C1=C/CC[C@@]3(C)O[C@H]3[C@H]3OC(=O)C(=C)[C@@H]3CC1)=C\CC[C@@]1(C)O[C@@H]21    3.43
3. CC(O)CCc1ccc(Oc2c3ccccc3nc3occc23)cc1 (configuration not stated)    14.4
4. O=C(N/N=C/c1cc(Cl)cc(Cl)c1[O-])c1ccccc1O.O=C(N/N=C/c1cc(Cl)cc(Cl)c1[O-])c1ccccc1O.[Cl-].[Fe+3]    51.2
5. Cn1cc(-c2ccc(-c3cn(C)c4ccc(Cl)cc34)[nH]2)c2cc(Cl)ccc21    4.49
6. C=C1C(=O)O[C@H]2[C@H]1CC/C(COC(=O)CCCC(=O)OC/C1=C/CC[C@@]3(C)O[C@H]3[C@H]3OC(=O)C(=C)[C@@H]3CC1)=C\CC[C@@]1(C)O[C@@H]21    4.97

====

Test system: SK-MEL-2 melanoma
Assay: NCI tumour cell line growth inhibition, 48 h; in the data active means GI50 below about 0.43 µM; inactive means the rest
Outcome codes: class 1 (active), class 0 (inactive)

1. C=C1C(=O)O[C@H]2[C@H]1CC/C(COC(=O)/C=C\C(=O)NCc1ccc(Cn3c(=O)sn(CCCI)c3=O)cc1)=C\CC[C@@]1(C)O[C@@H]21    class 0
2. C=C1C(=O)O[C@H]2[C@H]1CC/C(COC(=O)CCSSCCC(=O)OC/C1=C/CC[C@@]3(C)O[C@H]3[C@H]3OC(=O)C(=C)[C@@H]3CC1)=C\CC[C@@]1(C)O[C@@H]21    class 0
3. Cn1cc(-c2ccc(-c3cn(C)c4ccc(Cl)cc34)[nH]2)c2cc(Cl)ccc21    class 0
4. O=[N+]([O-])c1ccc2c(c1)C(=NO)c1cc([N+](=O)[O-])ccc1-2    class 0
5. C[CH2][Pb]([CH2]C)([CH2]C)[O]C(=O)COc1ccccc1    class 1
6. COc1cc2c(cc1OCc1ccccc1)N=CC1C[C@@H](O)CN1C2=O (stereo partly drawn)    class 0
7. O=C1N[C@@H]2[C@@H](O)[C@@H](O)[C@H](O)C[C@H]2c2cc3c(c(O)c21)OCO3    class 1
8. CC1(C)CC[C@]2(C(N)=O)CC[C@]3(C)C(=CC[C@@H]4[C@@]5(C)C/C(=C/c6cccnc6)C(=O)C(C)(C)[C@@H]5CC[C@]43C)[C@@H]2C1    class 0
